- System: HEK-293T
- PROTOCOL DESCRIPTION: Multiplex assay against HEK293T
- Format: toxicity, cell-based
- EXPERIMENTAL PARAMETERS: human, 48 h, 10 µM, compound concentration 10 uM, replicate 1
PROPERTY MEASURED: Population Mitochondria Different-Phenotype (%)

> print(dat)
                                   compound  quantitative.readout
1  COc1cc(N2CCC(N(C)C)CC2)ccc1Nc1ncc(Cl)c(Nc2ccccc2P(C)(C)=O)n1                   100
2  CCCn1c(=O)c2[nH]c(C34CC5CC(CC3C5)C4)nc2n(CCC)c1=O                    98
3  COc1cc2c(NC3CCN(C(C)C)CC3)nc(N3CCC(F)(F)CC3)nc2cc1OCCCN1CCCC1                    96
4  Cc1cc2c(cc1N1C(=O)c3cccc4c(CCCO)ccc(c34)C1=O)n(C)c(=O)n2C                    59
5  Cl.Cl.Nc1ncnc2c1c(-c1cccc(OCc3ccccc3)c1)cn2[C@H]1C[C@@H](CN2CCC2)C1                   100
6  CCn1c(-c2nonc2N)nc2cnc(Oc3cccc(NC(=O)c4ccc(OCCN5CCOCC5)cc4)c3)cc21 [GSK-269962A]                    97
7  CC(C)Oc1ccc(C(=O)N[C@H](CNC(=O)CN(C)C)Cc2ccc(-c3cn4cccc([C@H](C)O)c4n3)cc2)cc1Cl [GSK-923295A]                   100
8  CCc1cc2c(cc1CC)CC(NC[C@H](O)c1ccc(O)c3[nH]c(=O)ccc13)C2                    25
9  Cc1nc(Cc2cccc(C(F)(F)F)c2)sc1-c1ccc(C(N)=O)nc1 [TP-024n]                    69
